molecular target: ER beta receptor (Homo sapiens); construct: purchased PanVera; experiment: Competition ER binding assay (3H-Estradiol displacement); details: selectivity ratio Ki ER alpha / Ki ER beta; Ki from IC50 by Cheng-Prusoff; 3H-Estradiol, ERAlpha or ERbeta Receptor (PanVera)
Sequence (Q92731 whole entry): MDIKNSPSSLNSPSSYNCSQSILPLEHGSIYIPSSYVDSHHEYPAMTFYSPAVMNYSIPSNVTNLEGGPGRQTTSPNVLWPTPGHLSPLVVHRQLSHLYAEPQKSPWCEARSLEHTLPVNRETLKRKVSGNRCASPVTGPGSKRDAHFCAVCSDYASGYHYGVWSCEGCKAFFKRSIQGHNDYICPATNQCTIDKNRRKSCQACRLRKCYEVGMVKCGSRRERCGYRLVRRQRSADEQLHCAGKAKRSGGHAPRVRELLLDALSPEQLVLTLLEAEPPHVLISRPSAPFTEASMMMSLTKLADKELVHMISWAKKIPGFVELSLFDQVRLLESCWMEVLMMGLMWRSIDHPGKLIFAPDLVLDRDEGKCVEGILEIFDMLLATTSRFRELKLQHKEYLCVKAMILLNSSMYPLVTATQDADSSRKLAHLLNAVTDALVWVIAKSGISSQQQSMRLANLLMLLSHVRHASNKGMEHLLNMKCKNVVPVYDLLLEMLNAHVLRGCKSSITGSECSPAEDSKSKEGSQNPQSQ
measured_metric: Ratio of Ki(nM)ER alpha/Ki(nM) ER beta

- Oc1ccc2c(c1)[C@H]1CCC[C@H]1[C@@H](c1ccc(C(F)(F)F)cc1)O2 (racemic): 6.9
- Cc1ccc([C@H]2Oc3ccc(O)cc3[C@H]3CCC[C@H]32)cc1 (racemic): 12.6

A = Oc1ccc2c(c1)[C@H]1CCC[C@H]1[C@@H](c1ccc(F)cc1)O2 (racemic)
B = CCc1ccc([C@H]2Oc3ccc(O)cc3[C@H]3CCC[C@H]32)cc1 (racemic)
Larger number for Ratio of Ki(nM)ER alpha/Ki(nM) ER beta: A , or B ? Reply briefly: the label of your chosen item.
A
